The measurements presented in this section are drawn from ChEMBL document CHEMBL3120136.

Here the recorded Vdss is given for each entry.
- System: Rattus norvegicus
- assay details: Volume of distribution at steady state in Sprague-Dawley rat at 1 mg/kg, iv by HPLC-MS/MS analysis
- measurement parameters: in vivo
measured property: Vdss (L/kg)

- CC(C)(C)OC(=O)N[C@H]1CCCCC/C=C\[C@@H]2C[C@@]2(C(=O)NS(=O)(=O)C2CC2)NC(=O)[C@@H]2C[C@@H](OC(=O)N3CCc4ccccc4C3)CN2C1=O: 5.982
- CC(C)(C)OC(=O)N[C@H]1CCCCC/C=C\[C@@H]2C[C@@]2(C(=O)NS(=O)(=O)C2CC2)NC(=O)[C@@H]2C[C@@H](OC(=O)N3Cc4cccc(F)c4C3)CN2C1=O [DANOPREVIR]: 0.155
- CC(C)(C)OC(=O)N[C@H]1CCCCC/C=C\[C@@H]2C[C@@]2(C(=O)NS(=O)(=O)C2CC2)NC(=O)[C@@H]2C[C@@H](OC(=O)N3Cc4ccccc4C3)CN2C1=O: 0.089
- CN(C)S(=O)(=O)NC(=O)[C@@]12C[C@H]1/C=C\CCCCC[C@H](NC(=O)OC(C)(C)C)C(=O)N1C[C@H](OC(=O)N3Cc4ccccc4C3)C[C@H]1C(=O)N2: 2.583

###

- assay details: Inhibition of Hepatitis C virus full-length NS3/4A protease assessed as quenched-fluorogenic RET-S1 substrate cleavage incubated for 10 mins prior to substrate addition by FRET analysis
- Set-up: species or system Hepacivirus hominis
measured property: IC50 (nM)

- CC(C)(C)OC(=O)N[C@H]1CCCCC/C=C\[C@@H]2C[C@@]2(C(=O)NS(=O)(=O)C2CC2)NC(=O)[C@@H]2C[C@@H](OC(=O)N3Cc4ccc(C#N)cc4C3)CN2C1=O: 2.5
- CC(C)(C)OC(=O)N[C@H]1CCOCCCC[C@@H]2C[C@@]2(C(=O)NS(=O)(=O)C2CC2)NC(=O)[C@@H]2C[C@@H](OC(=O)N3Cc4cccc(F)c4C3)CN2C1=O: 0.7
- CC(C)(C)OC(=O)N[C@H]1CCCC(F)(F)CCC[C@@H]2C[C@@]2(C(=O)NS(=O)(=O)C2CC2)NC(=O)[C@@H]2C[C@@H](OC(=O)N3Cc4cccc(F)c4C3)CN2C1=O: 1.3
- CC(C)(C)OC(=O)N[C@H]1CCCCC/C=C\[C@@H]2C[C@@]2(C(=O)NS(=O)(=O)NC2CC2)NC(=O)[C@@H]2C[C@@H](OC(=O)N3Cc4ccccc4C3)CN2C1=O: 4.2
- CC(C)(C)OC(=O)N[C@H]1CCCCC/C=C\[C@@H]2C[C@@]2(C(=O)NS(=O)(=O)c2cccs2)NC(=O)[C@@H]2C[C@@H](OC(=O)N3Cc4ccccc4C3)CN2C1=O: 2.5

###

- assay details: Metabolic stability in rat hepatocytes assessed as extraction ratio at 1 uM
- Format: ADME, cell-based, Hepatocyte
- measurement parameters: read-out: ERH
measured property: hepatic extraction ratio at 1 µM

- CC(C)(C)OC(=O)N[C@H]1CCCCC/C=C\[C@@H]2C[C@@]2(C(=O)NS(=O)(=O)C2CC2)NC(=O)[C@@H]2C[C@@H](OC(=O)N3CCc4ccccc4C3)CN2C1=O: 0.05
- CC(C)(C)OC(=O)N[C@H]1CCCCC/C=C\[C@@H]2C[C@@]2(C(=O)NS(=O)(=O)C2CC2)NC(=O)[C@@H]2C[C@@H](OC(=O)N3Cc4ccccc4C3)CN2C1=O: 0.01
- CC(C)(C)OC(=O)N[C@H]1CCCCC/C=C\[C@@H]2C[C@@]2(C(=O)NS(=O)(=O)C2CC2)NC(=O)[C@@H]2C[C@@H](OC(=O)N3Cc4cccc(F)c4C3)CN2C1=O: 0.06
- CN(C)S(=O)(=O)NC(=O)[C@@]12C[C@H]1/C=C\CCCCC[C@H](NC(=O)OC(C)(C)C)C(=O)N1C[C@H](OC(=O)N3Cc4ccccc4C3)C[C@H]1C(=O)N2: 0.16

###

- assay details: Inhibition of Hepatitis C virus full-length NS3/4A protease assessed as quenched-fluorogenic RET-S1 substrate cleavage incubated for 10 mins prior to substrate addition by FRET analysis
- Parameters: species or system Hepacivirus hominis
pIC50: −log10 of the molar value. *1 amine or outer side, *2 acyl side, *3 side chain or, on linkers, in order; H or OH if unused. Where a SMILES comes first, the peptide text is derived from it. Side-chain parts run from the residue outwards. [ ]: non-standard residue; d: D form. The star is where a group is joined. Ac3c(1R,2S-2-vinyl) = C=C[C@@H]1C[C@]1(N)C(=O)O; Hyp = O=C(O)[C@@H]1C[C@@H](O)CN1; Chg = N[C@H](C(=O)O)C1CCCCC1; Morpholide = C1CN(*)CCO1; CO = O=C([*:1])[*:2]
Here the recorded pIC50 is given for each entry.
measured property: pIC50

• CC(C)(C)OC(=O)N[C@H]1CCNCC/C=C\[C@@H]2C[C@@]2(C(=O)NS(=O)(=O)C2CC2)NC(=O)[C@@H]2C[C@@H](OC(=O)N3Cc4cccc(F)c4C3)CN2C1=O = 8.01
• CN(C)S(=O)(=O)NC(=O)[C@@]12C[C@H]1/C=C\CCCCC[C@H](NC(=O)OC(C)(C)C)C(=O)N1C[C@H](OC(=O)N3Cc4ccccc4C3)C[C@H]1C(=O)N2 = 8.60
• CC(C)(C)OC(=O)N[C@H]1CCCCC/C=C\[C@@H]2C[C@@]2(C(=O)O)NC(=O)[C@@H]2C[C@@H](OC(=O)N3Cc4cc(Cl)c(Cl)cc4C3)CN2C1=O = 6.32
• CC(C)(C)OC(=O)N[C@H]1CCC(F)(F)CC/C=C\[C@@H]2C[C@@]2(C(=O)NS(=O)(=O)C2CC2)NC(=O)[C@@H]2C[C@@H](OC(=O)N3Cc4cccc(F)c4C3)CN2C1=O = 8.82
• C=C[C@@H]1C[C@]1(NC(=O)[C@@H]1C[C@@H](OC(=O)N2CCOCC2)CN1C(=O)[C@@H](NC(=O)[C@@H](NC(C)=O)C1CCCCC1)C(C)C)C(=O)O (Ac-[Chg]V[Hyp]([CO-Morpholide])[Ac3c(1R,2S-2-vinyl)]-OH) = 4.33
• CC(C)(C)OC(=O)N[C@H]1CCCCC/C=C\[C@@H]2C[C@@]2(C(=O)NS(=O)(=O)C2CC2)NC(=O)[C@@H]2C[C@@H](OC(=O)N3Cc4ccc(Cl)cc4C3)CN2C1=O = 8.70
• CC(C)(C)OC(=O)N[C@H]1CCCCC/C=C\[C@@H]2C[C@@]2(C(=O)NS(=O)(=O)C2CC2)NC(=O)[C@@H]2C[C@@H](OC(=O)N3Cc4ccccc4C3)CN2C1=O = 8.92
• CC(C)(C)OC(=O)N[C@H]1CCCCC/C=C\[C@@H]2C[C@@]2(C(=O)NS(=O)(=O)C(F)(F)F)NC(=O)[C@@H]2C[C@@H](OC(=O)N3Cc4ccccc4C3)CN2C1=O = 8.32
• CC(C)(C)OC(=O)N[C@H]1CCCCC/C=C\[C@@H]2C[C@@]2(C(=O)O)NC(=O)[C@@H]2C[C@@H](OC(=O)N3Cc4ccccc4C3)CN2C1=O = 7.96
• CC(C)(C)OC(=O)N[C@H]1CCCCC/C=C\[C@@H]2C[C@@]2(C(=O)NS(=O)(=O)C2CC2)NC(=O)[C@@H]2C[C@@H](OC(=O)N3CCc4cc(F)ccc4C3)CN2C1=O = 8.70

###

- assay details: Plasma clearance in rat assessed as extraction ratio
- Assay type: ADME, organism-based
- measurement parameters: read-out: ERH
measured property: hepatic extraction ratio

* CC(C)(C)OC(=O)N[C@H]1CCCCC/C=C\[C@@H]2C[C@@]2(C(=O)NS(=O)(=O)C2CC2)NC(=O)[C@@H]2C[C@@H](OC(=O)N3Cc4ccccc4C3)CN2C1=O | 0.06
* CC(C)(C)OC(=O)N[C@H]1CCCCC/C=C\[C@@H]2C[C@@]2(C(=O)NS(=O)(=O)C2CC2)NC(=O)[C@@H]2C[C@@H](OC(=O)N3Cc4cccc(F)c4C3)CN2C1=O | 0.04

###

Here the recorded IC50 is given for each entry.
- assay details: Inhibition of Hepatitis C virus full-length NS3/4A protease assessed as quenched-fluorogenic RET-S1 substrate cleavage incubated for 10 mins prior to substrate addition by FRET analysis
- Design: species or system Hepacivirus hominis
*1 amine or outer side, *2 acyl side, *3 side chain or, on linkers, in order; H or OH if unused. Where a SMILES comes first, the peptide text is derived from it. Side-chain parts run from the residue outwards. [ ]: non-standard residue; d: D form. The star is where a group is joined. Ac3c(1R,2S-2-vinyl) = C=C[C@@H]1C[C@]1(N)C(=O)O; Hyp = O=C(O)[C@@H]1C[C@@H](O)CN1; Chg = N[C@H](C(=O)O)C1CCCCC1; X2 = c1ccc(C2CN(*)CCO2)cc1; CO = O=C([*:1])[*:2]; Carbamoyl = NC(=O)*
measured property: IC50

• CC(C)(C)OC(=O)N[C@H]1CCCCC/C=C\[C@@H]2C[C@@]2(C(=O)NS(=O)(=O)C2CC2)NC(=O)[C@@H]2C[C@@H](OC(=O)N3CCc4ccc(Cl)cc4C3)CN2C1=O = 4.1 nM
• CC(C)(C)OC(=O)N[C@H]1CCCCC/C=C\[C@@H]2C[C@@]2(C(=O)O)NC(=O)[C@@H]2C[C@@H](OC(=O)N3Cc4cccc(F)c4C3)CN2C1=O = 10 nM
• CC(C)(C)OC(=O)N[C@H]1CCCCC/C=C\[C@@H]2C[C@@]2(C(=O)O)NC(=O)[C@@H]2C[C@@H](OC(=O)N3Cc4ccc(C(F)(F)F)cc4C3)CN2C1=O = 195 nM
• CC(C)(C)OC(=O)N[C@H]1CCCOC/C=C\[C@@H]2C[C@@]2(C(=O)NS(=O)(=O)C2CC2)NC(=O)[C@@H]2C[C@@H](OC(=O)N3Cc4cccc(F)c4C3)CN2C1=O = 0.8 nM
• C=C[C@@H]1C[C@]1(NC(=O)[C@@H]1C[C@@H](OC(N)=O)CN1C(=O)[C@@H](NC(=O)[C@@H](NC(C)=O)C1CCCCC1)C(C)C)C(=O)O (Ac-[Chg]V[Hyp](Carbamoyl)[Ac3c(1R,2S-2-vinyl)]-OH) = 200 nM
• CC(C)(C)OC(=O)N[C@H]1CCCC/C=C\[C@@H]2C[C@@]2(C(=O)NS(=O)(=O)C2CC2)NC(=O)[C@@H]2C[C@@H](OC(=O)N3Cc4cccc(F)c4C3)CN2C1=O = 1.5 nM
• CC(C)(C)OC(=O)N[C@H]1COCCC/C=C\[C@@H]2C[C@@]2(C(=O)NS(=O)(=O)C2CC2)NC(=O)[C@@H]2C[C@@H](OC(=O)N3Cc4cccc(F)c4C3)CN2C1=O = 1.8 nM
• C=C[C@@H]1C[C@]1(NC(=O)[C@@H]1C[C@@H](OC(=O)N2CCOC(c3ccccc3)C2)CN1C(=O)[C@@H](NC(=O)[C@@H](NC(C)=O)C1CCCCC1)C(C)C)C(=O)O (stereo partly drawn) (Ac-[Chg]V[Hyp]([CO-X2])[Ac3c(1R,2S-2-vinyl)]-OH) = 4770 nM
• CC(C)(C)OC(=O)N[C@H]1CCC(F)(F)CCCC[C@@H]2C[C@@]2(C(=O)NS(=O)(=O)C2CC2)NC(=O)[C@@H]2C[C@@H](OC(=O)N3Cc4cccc(F)c4C3)CN2C1=O = 0.8 nM
• CC(C)(C)OC(=O)N[C@H]1CCOCC/C=C\[C@@H]2C[C@@]2(C(=O)NS(=O)(=O)C2CC2)NC(=O)[C@@H]2C[C@@H](OC(=O)N3Cc4cccc(F)c4C3)CN2C1=O = 1.2 nM
